- assay.target: Progesterone receptor (Homo sapiens) (UniProt P06401)
- Sequence (P06401 whole entry, looked up): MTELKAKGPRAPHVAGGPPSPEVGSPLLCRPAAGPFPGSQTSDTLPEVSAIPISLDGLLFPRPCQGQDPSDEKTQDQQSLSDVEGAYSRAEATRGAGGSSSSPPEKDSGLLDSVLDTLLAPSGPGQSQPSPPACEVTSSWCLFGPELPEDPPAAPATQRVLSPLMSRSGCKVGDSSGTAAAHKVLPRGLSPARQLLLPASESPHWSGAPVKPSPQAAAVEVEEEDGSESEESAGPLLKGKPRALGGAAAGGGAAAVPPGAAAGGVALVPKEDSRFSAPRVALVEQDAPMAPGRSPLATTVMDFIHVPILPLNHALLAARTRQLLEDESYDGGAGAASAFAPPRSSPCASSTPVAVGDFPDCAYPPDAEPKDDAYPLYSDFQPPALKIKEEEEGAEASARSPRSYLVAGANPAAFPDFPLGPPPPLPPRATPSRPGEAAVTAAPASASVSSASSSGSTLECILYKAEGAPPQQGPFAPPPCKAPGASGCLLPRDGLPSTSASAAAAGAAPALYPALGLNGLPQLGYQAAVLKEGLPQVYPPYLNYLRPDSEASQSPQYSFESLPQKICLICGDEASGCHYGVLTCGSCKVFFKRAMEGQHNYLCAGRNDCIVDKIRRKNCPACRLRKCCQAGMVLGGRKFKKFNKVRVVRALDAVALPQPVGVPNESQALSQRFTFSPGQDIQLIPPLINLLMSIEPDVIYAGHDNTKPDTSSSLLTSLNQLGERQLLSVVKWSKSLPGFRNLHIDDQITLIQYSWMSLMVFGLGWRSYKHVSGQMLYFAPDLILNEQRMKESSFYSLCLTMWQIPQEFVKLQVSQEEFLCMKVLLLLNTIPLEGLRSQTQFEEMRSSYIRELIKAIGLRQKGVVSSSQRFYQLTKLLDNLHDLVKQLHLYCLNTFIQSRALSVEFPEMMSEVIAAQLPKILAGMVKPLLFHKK
- run.description: qHTS assay to identify small molecule antagonists of the progesterone receptor (PR) signaling pathway (AID 1346795)
- condition.parameters: PR-UAS-bla HEK293T, beta-lactamase FRET ratio, 16 h; series mostly up to 92.4 µM
Results filed as inconclusive are left out. Active and inactive are the calls of the source. Calls follow the shape of the dose curve; as a rule, active = well fitted inhibition curve with a large enough effect in the signal ratio in the repeat runs (not every such curve was filed as active); inconclusive = weak or mixed curves; inactive = flat fitted curve, though single readings scatter; the % refers to the signal ratio.
Classes used: Y = active, N = inactive

[
  {
    "mol": "CCOC(=O)N1CCC(=C2c3ccc(Cl)cc3CCc3cccnc32)CC1",
    "group": "Y"
  },
  {
    "mol": "S=C(SSSSSSC(=S)N1CCCCC1)N1CCCCC1",
    "group": "Y"
  },
  {
    "mol": "Oc1c(Br)cc(Br)c2cccnc12",
    "group": "Y"
  },
  {
    "mol": "NC1(c2ccc(-c3nc4ccn5c(=O)[nH]nc5c4cc3-c3ccccc3)cc2)CCC1",
    "group": "N"
  },
  {
    "mol": "CCCCCCCC(=O)OCC",
    "group": "N"
  }
]
